In this section, each of the binders is paired with its reported IC50 (read off the curve).
Target: T1, myc-tagged human EphB4 on transfected CHO cells (human, UniProt P54760 16-987)
T1 construct: whole, on cells; also called CHO-EphB4; CHO-hEphB4; not shown: myc tag
T1 sequence (looked up): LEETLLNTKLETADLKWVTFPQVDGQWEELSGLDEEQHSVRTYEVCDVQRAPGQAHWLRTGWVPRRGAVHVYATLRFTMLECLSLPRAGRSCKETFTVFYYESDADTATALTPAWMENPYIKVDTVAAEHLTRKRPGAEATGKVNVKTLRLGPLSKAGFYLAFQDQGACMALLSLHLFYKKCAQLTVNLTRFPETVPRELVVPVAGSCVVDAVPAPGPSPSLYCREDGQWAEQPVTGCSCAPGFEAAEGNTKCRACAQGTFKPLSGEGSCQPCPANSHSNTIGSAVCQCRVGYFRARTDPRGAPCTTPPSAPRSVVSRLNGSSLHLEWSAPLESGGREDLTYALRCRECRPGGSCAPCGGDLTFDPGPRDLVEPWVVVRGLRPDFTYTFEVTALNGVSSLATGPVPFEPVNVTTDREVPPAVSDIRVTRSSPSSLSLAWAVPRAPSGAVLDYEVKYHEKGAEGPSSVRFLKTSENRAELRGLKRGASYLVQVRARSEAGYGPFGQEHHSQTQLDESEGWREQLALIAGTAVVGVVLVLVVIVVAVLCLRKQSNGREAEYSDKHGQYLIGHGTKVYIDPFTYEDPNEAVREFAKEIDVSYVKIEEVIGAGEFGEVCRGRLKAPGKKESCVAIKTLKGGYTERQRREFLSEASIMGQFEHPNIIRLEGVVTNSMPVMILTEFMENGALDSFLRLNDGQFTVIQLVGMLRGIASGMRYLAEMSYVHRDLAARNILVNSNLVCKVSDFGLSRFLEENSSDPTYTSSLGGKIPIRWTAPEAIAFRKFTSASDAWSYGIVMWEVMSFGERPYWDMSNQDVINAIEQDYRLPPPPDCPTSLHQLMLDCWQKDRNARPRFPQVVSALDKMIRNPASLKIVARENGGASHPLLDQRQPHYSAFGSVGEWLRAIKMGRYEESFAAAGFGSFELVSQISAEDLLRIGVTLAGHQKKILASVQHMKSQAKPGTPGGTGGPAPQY
Assay: FACS competition on CHO-EphB4 cells, competitor murine ephrin-B2

# example entries with known answers
# binder, IC50 (read off the curve)
records = [
    ("MOR07724 IgG4-Pro (antibody, V domains shown, Fab MOR07724 converted into human IgG4-Pro format) VH: QVQLVESGGGLVQPGGSLRLSCAASGFTFNNAWMSWVRQAPGKGLEWVSGISADGVHKFYADSVKGRFTISRDNSKNTLYLQMNSLRAEDTAVYYCARKGMSFYNNKYAKSMFDLWGQGTLVTVSS VL: DIELTQPPSVSVAPGQTARISCSGDNLGKKYVHWYQQKPGQAPVLVIYYDSKRPSGIPERFSGSNSGNTATLTISGTQAEDEADYYCSAWTTTMMHIVFGGGTKLTVLG", "~100 pM"),
    ("MOR07720 IgG4-Pro (antibody, V domains shown, Fab MOR07720 converted into human IgG4-Pro format) VH: QVQLVESGGGLVQPGGSLRLSCAASGFTFNNAWMSWVRQAPGKGLEWVSQIEAKQPGGATSYAASVKGRFTISRDNSKNTLYLQMNSLRAEDTAVYYCARKGMSFYNNKYAKSMFDLWGQGTLVTVSS VL: DIELTQPPSVSVAPGQTARISCSGDNLGKKYVHWYQQKPGQAPVLVIYYDSKRPSGIPERFSGSNSGNTATLTISGTQAEDEADYYCSAWTTTMMHIVFGGGTKLTVLG", "~100 pM"),
    ("MOR07721 IgG4-Pro (antibody, V domains shown, Fab MOR07721 converted into human IgG4-Pro format) VH: QVQLVESGGGLVQPGGSLRLSCAASGFTFNNAWMSWVRQAPGKGLEWVSTIEAKMPNGATFYAAPVKGRFTISRDNSKNTLYLQMNSLRAEDTAVYYCARKGMSFYNNKYAKSMFDLWGQGTLVTVSS VL: DIELTQPPSVSVAPGQTARISCSGDNLGKKYVHWYQQKPGQAPVLVIYYDSKRPSGIPERFSGSNSGNTATLTISGTQAEDEADYYCSAWTTTMMHIVFGGGTKLTVLG", "~100 pM"),
]

Req: Item under review: MOR07729 IgG4-Pro (antibody, V domains shown, Fab MOR07729 converted into human IgG4-Pro format) VH: QVELVQSGAEVKKPGSSVKVSCKASGGTFSTYAISWVRQAPGQGLEWMGRIIPIFGTANYAQKFQGRVTITADESTSTAYMELSSLRSEDTAVYYCARSSYTILTTYYNYNAMDNWGQGTLVTVSS VL: DIQMTQSPSSLSASVGDRVTITCRASQNINNFLNWYQQKPGKAPKLLIYGSSILQSGVPSRFSGSGSGTDFTLTISSLQPEDFATYYCQQYDFYLSGTFGQGTKVEIKR . Reported IC50 (read off the curve)?
Resp: ~20000 pM

FYI, the data here is from patent US20090137002A1.
